Molecular target: OsWOX13 (Oryza sativa, UniProt Q5QMM3 1-267)
Sequence: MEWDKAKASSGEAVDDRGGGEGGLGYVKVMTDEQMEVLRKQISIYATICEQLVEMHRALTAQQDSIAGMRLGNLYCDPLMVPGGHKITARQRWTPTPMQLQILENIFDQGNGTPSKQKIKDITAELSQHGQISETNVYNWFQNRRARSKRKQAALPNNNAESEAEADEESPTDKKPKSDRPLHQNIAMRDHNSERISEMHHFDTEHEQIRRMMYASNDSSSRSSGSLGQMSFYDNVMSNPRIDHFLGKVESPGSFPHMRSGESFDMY
Test: protein-binding microarray (RPBM); PBS, 2% BSA, 51.3 ng/ul salmon testes DNA, 50 uM zinc acetate, 200 nM TF, 25 C, 1 h; high values mean tight binding
Settings: protein: recombinant; tags: N-terminal polyhistidine and DsRed monomer fusion (pET32a); label: CyDye5-dUTP incorporated in the synthesized complementary strand; 3' TTTTT single-stranded linker to array surface; dsDNA, one strand shown
Whole data set: some 35,000 sequences, median “fluorescence intensity (a.u.)” near 10,000, cut for the highest 2% near 52,000. This excerpt belongs to a sample that is enriched for the highest values.
measured attribute: binding signal

In: If you can, please state the reported binding signal value of GAGGCCAATCAGGTTGATGATGAAGAGGATGATTTCAGCGCGGAGTCACCTAGTGCAG .
Out: 18200 fluorescence intensity (a.u.)

In: If you can, please state the reported binding signal value of GAAATTGAAGATGATGTGACTGAAAAGTTGTGTATATGACCGGAGTCACCTAGTGCAG .
Out: 17200 fluorescence intensity (a.u.)

In: If you can, please state the reported binding signal value of AATTTACGATTGATTATTCATTCAGTGAGGCGCATGCGGTCGGAGTCACCTAGTGCAG .
Out: 32700 fluorescence intensity (a.u.)

In: If you can, please state the reported binding signal value of AGCTGATCTATCCAAATTGGTGAAACTAATTGTAAATTCTCGGAGTCACCTAGTGCAG .
Out: 11000 fluorescence intensity (a.u.)

In: If you can, please state the reported binding signal value of GATTGATGCAATTTAAATTATACTTAGTATTGGTGTATAACGGAGTCACCTAGTGCAG .
Out: 11400 fluorescence intensity (a.u.)

In: If you can, please state the reported binding signal value of ACAATGATTGGGTCTTAAGATTTTCTTTAATTATTCGACGCGGAGTCACCTAGTGCAG .
Out: 58300 fluorescence intensity (a.u.)

In: If you can, please state the reported binding signal value of GGTTGCTGATTGTATCCTTTACTACTAGATCTTGACTGAGCGGAGTCACCTAGTGCAG .
Out: 16300 fluorescence intensity (a.u.)

In: If you can, please state the reported binding signal value of GCTATTAGATTGACTATATATGAATTGGAGCTAGTAGTTGCGGAGTCACCTAGTGCAG .
Out: 42900 fluorescence intensity (a.u.)

In: If you can, please state the reported binding signal value of TGATGAGATTGATCCGATGATCTCCTCTTTAAATTTCTCGCGGAGTCACCTAGTGCAG .
Out: 19100 fluorescence intensity (a.u.)

In: If you can, please state the reported binding signal value of TGGAATGATGTGATGGAAAAGTTGAAAGTTTGTGTGTGTACGGAGTCACCTAGTGCAG .
Out: 5390 fluorescence intensity (a.u.)

In: If you can, please state the reported binding signal value of TAATTGATGTAATTTAAATTATTCTTGGTCTTAGTGTATACGGAGTCACCTAGTGCAG .
Out: 54800 fluorescence intensity (a.u.)

In: If you can, please state the reported binding signal value of TACAATCACATTCAATTTGAAAAGAGAAGATGGCTCTTGGCGGAGTCACCTAGTGCAG .
Out: 9800 fluorescence intensity (a.u.)

In: If you can, please state the reported binding signal value of CCAATGATTGATCGATTTCTCTCCATACGCCGTGTGCCAACGGAGTCACCTAGTGCAG .
Out: 59700 fluorescence intensity (a.u.)

In: If you can, please state the reported binding signal value of GTGTAATTACACTACGATTGTACTGTAATTACATCTGTCACGGAGTCACCTAGTGCAG .
Out: 29900 fluorescence intensity (a.u.)

In: If you can, please state the reported binding signal value of TCACATTCTTGCATGATTGAACACTCCCTTTCATCCCTCACGGAGTCACCTAGTGCAG .
Out: 18900 fluorescence intensity (a.u.)

In: If you can, please state the reported binding signal value of TCCAGTGATTAATCTCTTCTCCATCTCTGCCCTGCACCCTCGGAGTCACCTAGTGCAG .
Out: 21400 fluorescence intensity (a.u.)

In: If you can, please state the reported binding signal value of TTTAGATTGCTAAACACACATGTATATATAAGTTTTATTTCGGAGTCACCTAGTGCAG .
Out: 5900 fluorescence intensity (a.u.)

In: If you can, please state the reported binding signal value of TTGGAGATGATTGATTGGAAATCTTCTTCCAGTCTCCTCTCGGAGTCACCTAGTGCAG .
Out: 61700 fluorescence intensity (a.u.)

In: If you can, please state the reported binding signal value of AATCTCAAATTGAATCCATTTTATTTGATGACGATTTATTCGGAGTCACCTAGTGCAG .
Out: 9810 fluorescence intensity (a.u.)

In: If you can, please state the reported binding signal value of CAAAGATTTCACTGTTTAATCTAATCTTGTGGATTTTATGCGGAGTCACCTAGTGCAG .
Out: 3590 fluorescence intensity (a.u.)

In: If you can, please state the reported binding signal value of ATATGATAGAAAAGTTGTGTATGTATGAAATGTTTGATGTCGGAGTCACCTAGTGCAG .
Out: 9060 fluorescence intensity (a.u.)
